# test_protocol: Plasma concentration in spontaneously hypertensive rat at 3 mg/kg, po after 8 hrs
# Format: ADME, organism-based
# Design: dose 3 mg/kg, route oral
quantity: concentration at 8 h (ng/mL)
// units = ng/mL; emit number, no label

Req: State the recorded concentration at 8 h for this entry: CCn1c(-c2nonc2N)nc2cnc(Oc3cccc(NC(=O)c4ccc(OCCN5CCOCC5)cc4)c3)cc21 [GSK-269962A]
Resp: 88

====

# test_protocol: Cmax in Sprague-Dawley rat at 3.7 mg/kg, po
# Type: ADME, organism-based
# Set-up: dose 3.7 mg/kg, route oral
# condition_details: in vivo
quantity: Cmax (ng/mL)
// units = ng/mL; emit number, no label

Req: State the recorded Cmax for this entry: CCn1c(-c2nonc2N)nc2cnc(Oc3cccc(NC(=O)c4ccccc4)c3)cc21
Resp: 6940

====

# test_protocol: Plasma concentration in spontaneously hypertensive rat at 3 mg/kg, po after 2 hrs
# Assay type: ADME, organism-based
# Set-up: dose 3 mg/kg, route oral
quantity: concentration at 2 h (ng/mL)
// units = ng/mL; emit number, no label

Req: State the recorded concentration at 2 h for this entry: CCn1c(-c2nonc2N)nc2cnc(Oc3cccc(NC(=O)c4ccc(OCCN5CCOCC5)cc4)c3)cc21 [GSK-269962A]
Resp: 290

====

# test_protocol: Clearance in Sprague-Dawley rat at 1.6 mg/kg, iv
# Assay type: ADME, organism-based
# Set-up: dose 1.6 mg/kg, route intravenous
# condition_details: in vivo
quantity: clearance (mL/min/kg)
// units = mL/min/kg; emit number, no label

Req: State the recorded clearance for this entry: CCn1c(-c2nonc2N)nc2cnc(Oc3cccc(NC(=O)c4ccc(OCCN5CCOCC5)cc4)c3)cc21 [GSK-269962A]
Resp: 7.6

====

# test_protocol: Cmax in Sprague-Dawley rat at 3.3 mg/kg, po
# Format: ADME, organism-based
# Design: dose 3.3 mg/kg, route oral
# condition_details: in vivo
quantity: Cmax (ng/mL)
// units = ng/mL; emit number, no label

INSERT INTO measurements (compound, endpoint_unit, endpoint_result) VALUES
  ('CCn1c(-c2nonc2N)nc2cnc(Oc3cccc(NC(=O)c4ccc(OCCN5CCOCC5)cc4)c3)cc21 [GSK-269962A]', 'ng/mL', 800);

Req: State the recorded Cmax for this entry: CCn1c(-c2nonc2N)nc2cnc(Oc3cccc(NC(=O)c4ccc(OCCN(C)C)cc4)c3)cc21
Resp: 410

====

# test_protocol: Cmax in Sprague-Dawley rat at 2.1 mg/kg, iv
# Type: ADME, organism-based
# Parameters: dose 2.1 mg/kg, route intravenous
# condition_details: in vivo
quantity: Cmax (ng/mL)
// units = ng/mL; emit number, no label

Req: State the recorded Cmax for this entry: CCn1c(-c2nonc2N)nc2cnc(Oc3cccc(NC(=O)c4ccc(N5CCOCC5)cc4)c3)cc21
Resp: 1500

====

# test_protocol: Oral bioavailability in Sprague-Dawley rat at 3.7 mg/kg, po
# Format: ADME, organism-based
# condition_details: in vivo
quantity: bioavailability
Field: value (include unit after the number)

Req: State the recorded bioavailability for this entry: CCn1c(-c2nonc2N)nc2cnc(Oc3cccc(NC(=O)c4ccccc4)c3)cc21
Resp: 35%

====

# test_protocol: Oral bioavailability in Sprague-Dawley rat at 2 mg/kg, po
# Format: ADME, organism-based
# condition_details: in vivo
quantity: bioavailability (%)
// units = %; emit number, no label

Req: State the recorded bioavailability for this entry: CCn1c(-c2nonc2N)nc2cnc(Oc3cccc(NC(=O)c4ccc(N(C)C)cc4)c3)cc21 [GSK-248233A]
Resp: 11

====

# test_protocol: Volume of distribution in Sprague-Dawley rat at 0.85 mg/kg
# Type: ADME, organism-based
# Parameters: dose 0.85 mg/kg
# condition_details: in vivo, read-out: Vdss
quantity: Vd

Req: State the recorded Vd for this entry: CCn1c(-c2nonc2N)nc2cnc(Oc3cccc(NC(=O)c4ccc(N(C)C)cc4)c3)cc21 [GSK-248233A]
Resp: 0.09 L/kg

====

# Organism: Homo sapiens
# test_protocol: Selectivity for ROCK1 over CDK2
Please use class 1 whenever Selectivity ratio is not below 60, and class 0 whenever it is.

Example results:
INSERT INTO results (smiles_entry, category_label) VALUES
  ('CCn1c(-c2nonc2N)nc2cnc(Oc3ccc(NC(C)=O)cc3)cc21', 'class 1'),
  ('CCn1c(-c2nonc2N)nc2cnccc21', 'class 0'),
  ('CCn1c(-c2nonc2N)nc2cnc(Oc3ccccc3)cc21', 'class 1'),
  ('CCn1c(-c2nonc2N)nc2cnc(Oc3cccc(NC(C)=O)c3)cc21', 'class 1'),
  ('CCn1c(-c2nonc2N)nc2cnc(OC)cc21', 'class 0'),
  ('CCn1c(-c2nonc2N)nc2cnc(Oc3cccc(C(C)=O)c3)cc21', 'class 1');

Here is another compound to look at.
Req: Quick check: does CCn1c(-c2nonc2N)nc2cnc(Oc3cccc(N)c3)cc21 have Selectivity ratio greater than or equal to 60?
Resp: class 1

====

# test_protocol: Half life in Sprague-Dawley rat at 1 mg/kg, iv
# Format: ADME, organism-based
# Set-up: dose 1 mg/kg, route intravenous
# condition_details: in vivo
quantity: half-life (h)
// units = h; emit number, no label

INSERT INTO measurements (smiles_entry, endpoint_result) VALUES
  ('CCn1c(-c2nonc2N)nc2cnc(Oc3cccc(NC(=O)c4ccc(CN(C)C)cc4)c3)cc21', 1.9);

Next molecule, please.
Req: State the recorded half-life for this entry: CCn1c(-c2nonc2N)nc2cnc(Oc3cccc(NC(=O)c4ccc(CN)cc4)c3)cc21
Resp: 1.4

====

# subject_of_test: Rho-associated protein kinase 1 (Homo sapiens, UniProt Q13464)
# Sequence (Q13464 whole entry): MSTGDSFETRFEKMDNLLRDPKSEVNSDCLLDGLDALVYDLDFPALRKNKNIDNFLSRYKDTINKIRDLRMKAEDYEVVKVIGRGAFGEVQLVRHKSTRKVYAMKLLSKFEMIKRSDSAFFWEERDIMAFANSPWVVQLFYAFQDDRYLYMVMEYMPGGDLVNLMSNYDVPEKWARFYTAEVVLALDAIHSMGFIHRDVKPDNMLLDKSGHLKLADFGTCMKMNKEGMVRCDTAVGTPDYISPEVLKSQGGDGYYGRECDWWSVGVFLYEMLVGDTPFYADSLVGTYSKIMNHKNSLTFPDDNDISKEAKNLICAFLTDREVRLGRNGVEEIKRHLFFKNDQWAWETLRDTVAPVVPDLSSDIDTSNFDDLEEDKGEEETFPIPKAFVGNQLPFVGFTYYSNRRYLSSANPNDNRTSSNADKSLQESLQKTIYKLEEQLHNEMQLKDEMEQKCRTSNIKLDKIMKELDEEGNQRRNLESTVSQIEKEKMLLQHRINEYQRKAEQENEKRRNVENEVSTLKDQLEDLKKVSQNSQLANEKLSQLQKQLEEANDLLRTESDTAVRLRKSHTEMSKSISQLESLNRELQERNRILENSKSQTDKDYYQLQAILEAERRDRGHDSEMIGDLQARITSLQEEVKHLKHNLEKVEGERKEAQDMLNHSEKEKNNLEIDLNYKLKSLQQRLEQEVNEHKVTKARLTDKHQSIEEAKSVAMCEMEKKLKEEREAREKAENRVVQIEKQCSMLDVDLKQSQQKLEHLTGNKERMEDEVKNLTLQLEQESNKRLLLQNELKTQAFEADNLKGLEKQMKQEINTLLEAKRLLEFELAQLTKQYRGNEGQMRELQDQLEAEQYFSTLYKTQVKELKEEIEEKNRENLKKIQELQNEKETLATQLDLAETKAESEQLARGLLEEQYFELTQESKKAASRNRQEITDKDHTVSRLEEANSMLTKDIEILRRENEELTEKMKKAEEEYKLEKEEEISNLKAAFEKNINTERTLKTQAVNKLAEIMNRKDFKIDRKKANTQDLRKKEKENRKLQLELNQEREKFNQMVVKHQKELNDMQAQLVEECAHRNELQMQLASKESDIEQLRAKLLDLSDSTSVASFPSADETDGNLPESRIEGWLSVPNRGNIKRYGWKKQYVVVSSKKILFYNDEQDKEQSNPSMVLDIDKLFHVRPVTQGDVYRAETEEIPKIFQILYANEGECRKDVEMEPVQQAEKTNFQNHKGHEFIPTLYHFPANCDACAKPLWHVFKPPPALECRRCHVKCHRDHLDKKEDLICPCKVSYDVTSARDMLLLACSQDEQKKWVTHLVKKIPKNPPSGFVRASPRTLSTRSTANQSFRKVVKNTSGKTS
# test_protocol: Inhibition of human ROCK1 in Sf9 cells
quantity: pIC50
To interpret pIC50, take it as minus log10 of a concentration measured in moles per litre.

INSERT INTO assay_data (molecule, endpoint_result) VALUES
  ('CCn1c(-c2nonc2N)nc2cnc(Oc3cccc(S(C)(=O)=O)c3)cc21', 7.48);

Req: Param readout = pIC50; param system = Rho-associated protein kinase 1 (Homo sapiens, UniProt Q13464); param query = CCn1c(-c2nonc2N)nc2cnccc21 ; response: value
Resp: 7.72

Req: Param readout = pIC50; param system = Rho-associated protein kinase 1 (Homo sapiens, UniProt Q13464); param query = CCn1c(-c2nonc2N)nc2cnc(Oc3cccc(NC(C)=O)c3)cc21 ; response: value
Resp: 8.74

====

# test_protocol: Half life in Sprague-Dawley rat at 1.6 mg/kg, iv
# Format: ADME, organism-based
# Set-up: dose 1.6 mg/kg, route intravenous
# condition_details: in vivo
quantity: half-life (h)
// units = h; emit number, no label

Req: State the recorded half-life for this entry: CCn1c(-c2nonc2N)nc2cnc(Oc3cccc(NC(=O)c4ccc(OCCN5CCOCC5)cc4)c3)cc21 [GSK-269962A]
Resp: 2.2

====

# test_protocol: Cmax in Sprague-Dawley rat at 2.1 mg/kg, po
# Type: ADME, organism-based
# Design: dose 2.1 mg/kg, route oral
# condition_details: in vivo
quantity: Cmax (ng/mL)
// units = ng/mL; emit number, no label

Req: State the recorded Cmax for this entry: CCn1c(-c2nonc2N)nc2cnc(Oc3cccc(NC(=O)c4ccc(N5CCOCC5)cc4)c3)cc21
Resp: 890

====

# test_protocol: Half life in Sprague-Dawley rat at 1.1 mg/kg, iv
# Format: ADME, organism-based
# Parameters: dose 1.1 mg/kg, route intravenous
# condition_details: in vivo
quantity: half-life

Req: State the recorded half-life for this entry: CCn1c(-c2nonc2N)nc2cnc(Oc3cccc(NC(=O)c4ccc(CN5CCOCC5)cc4)c3)cc21
Resp: 1.4 h

====

# Organism: Homo sapiens
# test_protocol: Selectivity for ROCK1 over p70S6K
Listing of entries alongside the reported Selectivity ratio.
API note: the answer field is a bare number with no unit suffix.

INSERT INTO results (compound, endpoint_result) VALUES
  ('CCn1c(-c2nonc2N)nc2cnc(Oc3cccc(NC(C)=O)c3)cc21', 14),
  ('CCn1c(-c2nonc2N)nc2cnccc21', 3.1),
  ('CCn1c(-c2nonc2N)nc2cnc(Oc3cccc(NC(=O)c4ccc(N(C)C)cc4)c3)cc21 [GSK-248233A]', 7);

Req: State the recorded Selectivity ratio for this entry: CCn1c(-c2nonc2N)nc2cnc(OC)cc21
Resp: 15

Req: State the recorded Selectivity ratio for this entry: CCn1c(-c2nonc2N)nc2cnc(Oc3ccc(NC(C)=O)cc3)cc21
Resp: 9.2

Req: State the recorded Selectivity ratio for this entry: CCn1c(-c2nonc2N)nc2cnc(Oc3cccc(N)c3)cc21
Resp: 13

====

Listing of entries alongside the reported bioavailability.
# test_protocol: Oral bioavailability in Sprague-Dawley rat at 3.3 mg/kg, po
# Format: ADME, organism-based
# condition_details: in vivo
// units = %; emit number, no label

INSERT INTO measurements (compound, endpoint_result) VALUES
  ('CCn1c(-c2nonc2N)nc2cnc(Oc3cccc(NC(=O)c4ccc(OCCN5CCOCC5)cc4)c3)cc21 [GSK-269962A]', 78);

Next compound, please.
Req: State the recorded bioavailability for this entry: CCn1c(-c2nonc2N)nc2cnc(Oc3cccc(NC(=O)c4ccc(OCCN(C)C)cc4)c3)cc21
Resp: 40
